test: total protein half-life in vivo (active degradation + dilution); higher = more stable protein; conditions: wild type E. coli NCM3722; growth: N-lim chemostat; doubling time 12 h
This section presents sequences with their documented total protein half-life in vivo values.
readout_type: total protein half-life in vivo

{"columns": ["chain", "experimental_value"],
 "data": [
  ["MDIVFIEQLSVITTIGVYDWEQTIEQKLVFDIEMAWDNRKAAKSDDVADCLSYADIAETVVSHVEGARFALVERVAEEVAELLLARFNSPWVRIKLSKPGAVARAANVGVIIERGNNLKENN [P0AC16]", "10.7 h"],
  ["MSSNTFTLGTKSVNRLGYGAMQLAGPGVFGPPRDRHVAITVLREALALGVNHIDTSDFYGPHVTNQIIREALYPYSDDLTIVTKIGARRGEDASWLPAFSPAELQKAVHDNLRNLGLDVLDVVNLRVMMGDGHGPAEGSIEASLTVLAEMQQQGLVKHIGLSNVTPTQVAEARKIAEIVCVQNEYNIAHRADDAMIDALAHDGIAYVPFFPLGGFTPLQSSTLSDVAASLGATPMQVALAWLLQRSPNILLIPGTSSVAHLRENMAAEKLHLSEEVLSTLDGISRE", "8.77 h"],
  ["MKILLAALTSSFMLVGCTPRIEVAAPKEPITINMNVKIEHEIIIKADKDVEELLETRSDLF", "13.6 h"],
  ["MMNFNNVFRWHLPFLFLVLLTFRAAAADTLLILGDSLSAGYRMSASAAWPALLNDKWQSKTSVVNASISGDTSQQGLARLPALLKQHQPRWVLVELGGNDGLRGFQPQQTEQTLRQILQDVKAANAEPLLMQIRLPANYGRRYNEAFSAIYPKLAKEFDVPLLPFFMEEVYLKPQWMQDDGIHPNRDAQPFIADWMAKQLQPLVNHDS [P0ADA1]", "11 h"],
  ["MTDNPNKKTFWDKVHLDPTMLLILLALLVYSALVIWSASGQDIGMMERKIGQIAMGLVIMVVMAQIPPRVYEGWAPYLYIICIILLVAVDAFGAISKGAQRWLDLGIVRFQPSEIAKIAVPLMVARFINRDVCPPSLKNTGIALVLIFMPTLLVAAQPDLGTSILVALSGLFVLFLSGLSWRLIGVAVVLVAAFIPILWFFLMHDYQRQRVMMLLDPESDPLGAGYHIIQSKIAIGSGGLRGKGWLHGTQSQLEFLPERHTDFIFAVLAEELGLVGILILLALYILLIMRGLWIAARAQTTFGRVMAGGLMLILFVYVFVNIGMVSGILPVVGVPLPLVSYGGSALIVLMAGFGIVMSIHTHRKMLSKSV [P0ABG7]", "11.5 h"],
  ["MARTKLKFRLHRAVIVLFCLALLVALMQGASWFSQNHQRQRNPQLEELARTLARQVTLNVAPLMRTDSPDEKRIQAILDQLTDESRILDAGVYDEQGDLIARSGESVEVRDRLALDGKKAGGYFNQQIVEPIAGKNGPLGYLRLTLDTHTLATEAQQVDNTTNILRLMLLLSLAIGVVLTRTLLQGKRTRWQQSPFLLTASKPVPEEEESEKKE [P0AGC7]", "6.81 h"],
  ["MKFKVIALAALMGISGMAAQANELPDGPHIVTSGTASVDAVPDIATLAIEVNVAAKDAATAKKQADERVAQYISFLELNQIAKKDISSANLRTQPDYDYQDGKSILKGYRAVRTVEVTLRQLDKLNSLLDGALKAGLNEIRSVSLGVAQPDAYKDKARKAAIDNAIHQAQELANGFHRKLGPVYSVRYHVSNYQPSPMVRMMKADAAPVSAQETYEQAAIQFDDQVDVVFQLEPVDQQPAKTPAAQ [P0ADS6]", "12.1 h"]
]}
